# Target: GABAA receptors (UniProt P28472+P62813)
# Construct: expressed in transfected cells; host or cells: WSS-1 cells
# Sequence (P62813 28-455): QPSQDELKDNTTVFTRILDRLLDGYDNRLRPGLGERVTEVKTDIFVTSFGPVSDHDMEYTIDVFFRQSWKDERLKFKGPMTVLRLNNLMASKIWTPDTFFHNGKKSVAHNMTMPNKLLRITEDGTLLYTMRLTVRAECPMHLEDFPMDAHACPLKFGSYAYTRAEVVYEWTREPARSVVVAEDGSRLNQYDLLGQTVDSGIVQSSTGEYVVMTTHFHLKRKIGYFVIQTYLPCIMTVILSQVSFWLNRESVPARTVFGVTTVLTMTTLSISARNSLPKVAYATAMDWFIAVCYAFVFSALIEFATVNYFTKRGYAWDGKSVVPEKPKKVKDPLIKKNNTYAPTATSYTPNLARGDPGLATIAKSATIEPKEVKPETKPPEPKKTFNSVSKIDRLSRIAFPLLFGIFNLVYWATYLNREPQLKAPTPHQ
# Sequence (P28472 26-473): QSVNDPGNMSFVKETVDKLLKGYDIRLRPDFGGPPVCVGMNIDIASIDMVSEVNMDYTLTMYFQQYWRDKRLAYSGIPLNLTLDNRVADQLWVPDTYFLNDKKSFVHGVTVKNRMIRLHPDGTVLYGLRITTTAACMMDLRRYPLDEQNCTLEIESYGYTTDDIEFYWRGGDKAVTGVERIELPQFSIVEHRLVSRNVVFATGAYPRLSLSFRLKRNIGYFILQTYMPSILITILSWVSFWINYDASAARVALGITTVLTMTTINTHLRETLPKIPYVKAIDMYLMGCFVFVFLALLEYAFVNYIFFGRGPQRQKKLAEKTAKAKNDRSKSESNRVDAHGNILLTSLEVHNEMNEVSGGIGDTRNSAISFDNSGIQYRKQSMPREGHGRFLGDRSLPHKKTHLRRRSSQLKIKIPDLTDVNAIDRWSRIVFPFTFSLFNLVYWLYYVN
# Sequence (P18508 39-466 partner): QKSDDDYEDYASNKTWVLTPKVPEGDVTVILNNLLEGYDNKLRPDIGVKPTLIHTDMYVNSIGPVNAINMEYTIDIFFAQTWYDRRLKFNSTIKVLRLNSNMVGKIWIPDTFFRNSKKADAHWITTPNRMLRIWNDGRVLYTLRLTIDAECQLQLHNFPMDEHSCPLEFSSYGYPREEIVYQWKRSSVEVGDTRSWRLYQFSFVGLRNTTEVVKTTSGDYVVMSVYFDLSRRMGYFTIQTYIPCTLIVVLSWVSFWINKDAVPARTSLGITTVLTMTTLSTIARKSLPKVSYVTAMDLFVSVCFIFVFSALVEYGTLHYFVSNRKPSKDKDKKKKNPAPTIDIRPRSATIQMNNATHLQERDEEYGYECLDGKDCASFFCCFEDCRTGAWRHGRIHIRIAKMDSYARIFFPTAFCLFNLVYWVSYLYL
# Assay remarks: Whole-cell patch clamp antagonist dose-response, bicuculline loaded together with GABA, microfluidic scanning
# Assay type: cell-based
# Cond: IC50, descending order, texp=3 s, with 100 μM GABA
Experimental endpoint: pIC50
To interpret pIC50, take it as minus log10 of a concentration measured in moles per litre.

Task item: Please report pIC50 with GABAA receptors (UniProt P28472+P62813) for item CN1CCc2cc3c(cc2[C@H]1[C@@H]1OC(=O)c2c1ccc1c2OCO1)OCO3 [bicuculline] .
Reply: 5.74
